Target System: BCL2 G101V (Homo sapiens, UniProt P10415, G101V)
Assay Explanation: TR-FRET competitive binding assay, BCL2 G101V
Condition: BCL2 G101V; Ki determined from IC50; read-out: TR_FRET EKI_Bcl2 G101V
Measured Parameter: Ki (nM)
Give a bare numeral; the unit nM is implied.

Sample records with Ki:
Cc1nn(C)cc1N(C(=O)c1cc(-c2cc3c(cc2C(=O)N2Cc4ccccc4C[C@H]2C)CN(C(=O)Cc2ccc(OCCN(C)C)cc2)CC3)n(C)c1C)c1ccccc1 | 19.1
Cc1c(C(=O)N(c2ccccc2)c2ccnn2C)cc(-c2cc3c(cc2C(=O)N2Cc4ccccc4C[C@H]2C)CN(C(=O)Cc2ccc(OCCN4CCOCC4)cc2)CC3)n1C | 14.3

Given the entry "COC[C@@H]1Cc2ccccc2CN1C(=O)c1cc2c(cc1-c1cc(C(=O)N(c3ccccc3)c3cnn(C(F)F)c3)c(C)n1C)CCN(C(=O)Cc1ccc(OCCN3CCOCC3)cc1)C2" , report its measured Ki.
7.4
